Data credit: patent US20250326771A1

Tested on: Jurkat HIV-luciferase clones
test: Jurkat latency reversal assay
Type: cell-based
conditions used: Homo sapiens, 48 h; Jurkat latency reversal assay potency; read-out: Jurkat pEC50 (converted)
For each of the compounds below, state its EC50.

Enter reported EC50 observed with Jurkat HIV-luciferase clones for C[C@@H]1CN(CC(=O)N2CC(C)(C)c3[nH]c(=O)c(Cc4c(Cl)cc(Cl)cc4Cl)cc32)[C@@H](CN2CCO[C@H](C(=O)NCc3ccc(CNC(=O)[C@@H]4CN(C[C@H]5CN[C@H](C)CN5CC(=O)N5CC(C)(C)c6[nH]c(=O)c(Cc7c(Cl)cc(Cl)cc7Cl)cc65)CCO4)cc3)C2)CN1 [Compound 180]
0.0631 to 0.316 µM

Enter reported EC50 observed with Jurkat HIV-luciferase clones for C[C@@H]1CN(CC(=O)N2CC(C)(C)c3[nH]c(=O)c(Cc4ccc(F)cc4)cc32)[C@@H](CN2CCC[C@@H](NC(=O)Cc3ccc(CC(=O)N[C@@H]4CCCN(C[C@H]5CN[C@H](C)CN5CC(=O)N5CC(C)(C)c6[nH]c(=O)c(Cc7ccc(F)cc7)cc65)C4)cc3)C2)CN1 [Example 48]
0.316 to 3.31 µM

Enter reported EC50 observed with Jurkat HIV-luciferase clones for C[C@@H]1CN(CC(=O)N2CC(C)(C)c3[nH]c(=O)c(Cc4ccc(F)cc4)cc32)[C@@H](CN2CCO[C@H](COc3ccc(OC[C@@H]4CN(C[C@H]5CN[C@H](C)CN5CC(=O)N5CC(C)(C)c6[nH]c(=O)c(Cc7ccc(F)cc7)cc65)CCO4)cc3)C2)CN1 [Example 70]
0.00049 to 0.0126 µM

Enter reported EC50 observed with Jurkat HIV-luciferase clones for C[C@@H]1CN(CC(=O)N2CC(C)(C)c3[nH]c(=O)c(Cc4c(F)cc(F)cc4F)cc32)[C@@H](CN2CCO[C@H](C(=O)NCc3ccc(CNC(=O)[C@@H]4CN(C[C@H]5CN[C@H](C)CN5CC(=O)N5CC(C)(C)c6[nH]c(=O)c(Cc7c(F)cc(F)cc7F)cc65)CCO4)cc3)C2)CN1 [Compound 167]
0.00049 to 0.0126 µM
